# Tested on: 945468-187-T-J2-PDC spheroids viability
# method: Anticancer human tumor 945468-187-T-J2-PDC patient-derived rectal carcinoma cell line growth inhibition [PI3K]
# stated.conditions: second compound 0.0316 µM; first compound 3 µM; active compounds read low; spheroids with HUVEC and MSC
Measured viability, T/C values are reported for all entries that follow.
Respond with the bare value in %.

Below are worked cases with known answers.
compound	units.of.measure	viability, T/C
Cn1cnc2c(F)c(Nc3ccc(Br)cc3Cl)c(C(=O)NOCCO)cc21 + Cc1nc(NC(=O)N2CCCC2C(N)=O)sc1-c1ccnc(C(C)(C)C(F)(F)F)c1	%	62
Cn1cnc2c(F)c(Nc3ccc(Br)cc3Cl)c(C(=O)NOCCO)cc21 + CC(Nc1ccc2c(c1)OCCn1cc(N3C(=O)OCC3C(F)F)nc1-2)C(N)=O	%	74.5
Cn1cnc2c(F)c(Nc3ccc(Br)cc3Cl)c(C(=O)NOCCO)cc21 + CC(Nc1ncnc2nc[nH]c12)c1cc2cccc(Cl)c2c(=O)n1-c1ccccc1	%	73.7

(Q) Given the entry Cn1cnc2c(F)c(Nc3ccc(Br)cc3Cl)c(C(=O)NOCCO)cc21 + COc1c(OCCCN2CCOCC2)ccc2c3n(c(=NC(=O)c4cnc(N)nc4)nc12)CCN3 , what viability, T/C was observed with 945468-187-T-J2-PDC spheroids viability?
(A) 49.6

----------
# Test system: 945468-187-T-J2-PDC spheroids viability
# method: Anticancer human tumor 945468-187-T-J2-PDC cell line growth inhibition [PI3K];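 further: spheroids exposed to compounds for seven days before reading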
# stated.conditions: second compound 0.01 µM; first compound 0.1 µM; active compounds read low; spheroids with HUVEC and MSC
measured.quantity: viability, T/C (%)
Respond with the bare value in %.

compound	units.of.measure	obs.value
C=CC(=O)N1CCN(c2nc(=O)n(-c3c(C)ccnc3C(C)C)c3nc(-c4c(O)cccc4F)c(F)cc23)C(C)C1 (stereo not drawn) + COc1c(OCCCN2CCOCC2)ccc2c3n(c(=NC(=O)c4cnc(N)nc4)nc12)CCN3	%	100

(Q) Form field: reported viability, T/C of CNC(=O)c1ccc(N2C(=S)N(c3ccc(C#N)c(C(F)(F)F)c3)C(=O)C2(C)C)cc1F + COc1c(OCCCN2CCOCC2)ccc2c3n(c(=NC(=O)c4cnc(N)nc4)nc12)CCN3
(A) 92.2

(Q) Form field: reported viability, T/C of CNC(=O)c1ccc(N2C(=S)N(c3ccc(C#N)c(C(F)(F)F)c3)C(=O)C2(C)C)cc1F + CC(Nc1ccc2c(c1)OCCn1cc(N3C(=O)OCC3C(F)F)nc1-2)C(N)=O
(A) 82

----------
# Test system: 945468-187-T-J2-PDC spheroids viability
# method: Anticancer human tumor 945468-187-T-J2-PDC cell line growth inhibition [PI3K];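 further: spheroids exposed to compounds for seven days before reading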
# stated.conditions: second compound 0.1 µM; first compound 0.01 µM; active compounds read low; spheroids with HUVEC and MSC
# Description: Combinatorial screen of targeted agents with the PI3K inhibitors inavolisib, alpelisib, duvelisib, and copanlisib in multi-cell type tumor spheroids A high-throughput screen of multi-cell type tumor spheroids was designed to identify active combinations of targeted small molecules and PI3K pathway inhibitors. […] Compounds. […] If the clinical Cmax for an agent had not been determined, the highest concentration tested was 10 microM. […]
measured.quantity: viability, T/C (%)
Respond with the bare value in %.

Below are worked cases with known answers.
molecule	obs.value
Cn1ncnc1[C@H]1c2n[nH]c(=O)c3cc(F)cc(c23)N[C@@H]1c1ccc(F)cc1 + CC(Nc1ncnc2nc[nH]c12)c1cc2cccc(Cl)c2c(=O)n1-c1ccccc1	88
CC(C)n1nc(-c2ccc3oc(N)nc3c2)c2c(N)ncnc21 + Cc1nc(NC(=O)N2CCCC2C(N)=O)sc1-c1ccnc(C(C)(C)C(F)(F)F)c1	81.4
CC(C)n1nc(-c2ccc3oc(N)nc3c2)c2c(N)ncnc21 + CC(Nc1ncnc2nc[nH]c12)c1cc2cccc(Cl)c2c(=O)n1-c1ccccc1	84.2
CCN1CCN(Cc2ccc(Nc3ncc(F)c(-c4cc(F)c5nc(C)n(C(C)C)c5c4)n3)nc2)CC1 + Cc1nc(NC(=O)N2CCCC2C(N)=O)sc1-c1ccnc(C(C)(C)C(F)(F)F)c1	104

Turning to the following molecule.
(Q) Form field: reported viability, T/C of CC(=O)c1c(C)c2cnc(Nc3ccc(N4CCNCC4)cn3)nc2n(C2CCCC2)c1=O + Cc1nc(NC(=O)N2CCCC2C(N)=O)sc1-c1ccnc(C(C)(C)C(F)(F)F)c1
(A) 84.1

Recorded values, source PubChem BioAssay AID1963972.
